System: L. (L.) amazonensis promastigote forms
experimental-protocol: Flow cytometry for mitochondrial membrane potential (TMRE)
Type: cell-based, Leishmania (Leishmania) amazonensis
measurement-conditions: 48 h after treatment at the calculated IC50
Decide by TMRE-labeled promastigotes: equal to or exceeding 70% means Criterion met, less means Criterion not met.

CC(=O)C1=C([O-])C=C2Oc3c(C(C)=O)c(O)c(C)c(O)c3C2(C)C1=O.CC(=O)C1=C([O-])C=C2Oc3c(C(C)=O)c(O)c(C)c(O)c3C2(C)C1=O.CC(=O)C1=C([O-])C=C2Oc3c(C(C)=O)c(O)c(C)c(O)c3C2(C)C1=O.O.O.O.[Gd+3] (stereo not drawn)
Criterion not met
CC(=O)C1=C([O-])C=C2Oc3c(C(C)=O)c(O)c(C)c(O)c3C2(C)C1=O.CC(=O)C1=C([O-])C=C2Oc3c(C(C)=O)c(O)c(C)c(O)c3C2(C)C1=O.CC(=O)C1=C([O-])C=C2Oc3c(C(C)=O)c(O)c(C)c(O)c3C2(C)C1=O.O.O.O.[La+3] (stereo not drawn)
Criterion met
CC(=O)C1=C([O-])C=C2Oc3c(C(C)=O)c(O)c(C)c(O)c3C2(C)C1=O.CC(=O)C1=C([O-])C=C2Oc3c(C(C)=O)c(O)c(C)c(O)c3C2(C)C1=O.CC(=O)C1=C([O-])C=C2Oc3c(C(C)=O)c(O)c(C)c(O)c3C2(C)C1=O.O.O.O.[Eu+3] (stereo not drawn)
Criterion met

[Q] Dear colleague, could you confirm whether CC(=O)C1=C([O-])C=C2Oc3c(C(C)=O)c(O)c(C)c(O)c3C2(C)C1=O.CC(=O)C1=C([O-])C=C2Oc3c(C(C)=O)c(O)c(C)c(O)c3C2(C)C1=O.CC(=O)C1=C([O-])C=C2Oc3c(C(C)=O)c(O)c(C)c(O)c3C2(C)C1=O.O.O.O.O.[Sm+3] (stereo not drawn) has TMRE-labeled promastigotes at or above 70%?
[A] Criterion not met

---

Test system: L. (L.) amazonensis promastigote forms
experimental-protocol: Flow cytometry for apoptosis and membrane permeability (PE Annexin V / 7-AAD)
Format: cell-based, Leishmania (Leishmania) amazonensis
measurement-conditions: 24 h, treatment at IC50
Measured An./7-AAD (double stained parasites), listed per entry.
Provide the reading as a plain figure in %.

CC(=O)C1=C([O-])C=C2Oc3c(C(C)=O)c(O)c(C)c(O)c3C2(C)C1=O.CC(=O)C1=C([O-])C=C2Oc3c(C(C)=O)c(O)c(C)c(O)c3C2(C)C1=O.CC(=O)C1=C([O-])C=C2Oc3c(C(C)=O)c(O)c(C)c(O)c3C2(C)C1=O.O.O.O.[Eu+3] (stereo not drawn)
0.7
CC(=O)C1=C([O-])C=C2Oc3c(C(C)=O)c(O)c(C)c(O)c3C2(C)C1=O.CC(=O)C1=C([O-])C=C2Oc3c(C(C)=O)c(O)c(C)c(O)c3C2(C)C1=O.CC(=O)C1=C([O-])C=C2Oc3c(C(C)=O)c(O)c(C)c(O)c3C2(C)C1=O.O.O.O.[Gd+3] (stereo not drawn)
0.6
CC(=O)C1=C([O-])C=C2Oc3c(C(C)=O)c(O)c(C)c(O)c3C2(C)C1=O.CC(=O)C1=C([O-])C=C2Oc3c(C(C)=O)c(O)c(C)c(O)c3C2(C)C1=O.CC(=O)C1=C([O-])C=C2Oc3c(C(C)=O)c(O)c(C)c(O)c3C2(C)C1=O.O.O.[Tb+3] (stereo not drawn)
0.6
CC(=O)C1=C([O-])C=C2Oc3c(C(C)=O)c(O)c(C)c(O)c3C2(C)C1=O.CC(=O)C1=C([O-])C=C2Oc3c(C(C)=O)c(O)c(C)c(O)c3C2(C)C1=O.CC(=O)C1=C([O-])C=C2Oc3c(C(C)=O)c(O)c(C)c(O)c3C2(C)C1=O.O.O.O.O.[Sm+3] (stereo not drawn)
5.5
CC(=O)C1=C([O-])C=C2Oc3c(C(C)=O)c(O)c(C)c(O)c3C2(C)C1=O.CC(=O)C1=C([O-])C=C2Oc3c(C(C)=O)c(O)c(C)c(O)c3C2(C)C1=O.CC(=O)C1=C([O-])C=C2Oc3c(C(C)=O)c(O)c(C)c(O)c3C2(C)C1=O.O.O.O.[Nd+3] (stereo not drawn)
0.5

As a next step, examine the compound that follows.
[Q] Any idea what An./7-AAD (double stained parasites) was measured for CC(=O)C1=C([O-])C=C2Oc3c(C(C)=O)c(O)c(C)c(O)c3C2(C)C1=O.CC(=O)C1=C([O-])C=C2Oc3c(C(C)=O)c(O)c(C)c(O)c3C2(C)C1=O.CC(=O)C1=C([O-])C=C2Oc3c(C(C)=O)c(O)c(C)c(O)c3C2(C)C1=O.O.O.O.[La+3] (stereo not drawn) ?
[A] 0.5

---

Tested on: L. (L.) amazonensis promastigote forms
experimental-protocol: Flow cytometry for apoptosis and membrane permeability (PE Annexin V / 7-AAD)
Type: cell-based, Leishmania (Leishmania) amazonensis
measurement-conditions: 24 h, treatment at IC50
Note to self: 7-AAD-stained parasites under 0.4% means TRUE, ties and anything higher get FALSE.

CC(=O)C1=C([O-])C=C2Oc3c(C(C)=O)c(O)c(C)c(O)c3C2(C)C1=O.CC(=O)C1=C([O-])C=C2Oc3c(C(C)=O)c(O)c(C)c(O)c3C2(C)C1=O.CC(=O)C1=C([O-])C=C2Oc3c(C(C)=O)c(O)c(C)c(O)c3C2(C)C1=O.O.O.[Tb+3] (stereo not drawn) [TbL3·2H2O 6]
TRUE
CC(=O)C1=C([O-])C=C2Oc3c(C(C)=O)c(O)c(C)c(O)c3C2(C)C1=O.CC(=O)C1=C([O-])C=C2Oc3c(C(C)=O)c(O)c(C)c(O)c3C2(C)C1=O.CC(=O)C1=C([O-])C=C2Oc3c(C(C)=O)c(O)c(C)c(O)c3C2(C)C1=O.O.O.O.[Eu+3] (stereo not drawn) [EuL3·3H2O 4]
FALSE
CC(=O)C1=C([O-])C=C2Oc3c(C(C)=O)c(O)c(C)c(O)c3C2(C)C1=O.CC(=O)C1=C([O-])C=C2Oc3c(C(C)=O)c(O)c(C)c(O)c3C2(C)C1=O.CC(=O)C1=C([O-])C=C2Oc3c(C(C)=O)c(O)c(C)c(O)c3C2(C)C1=O.O.O.O.O.[Sm+3] (stereo not drawn) [SmL3·4H2O 2]
FALSE

Then there is this compound:
[Q] Is 7-AAD-stained parasites of CC(=O)C1=C([O-])C=C2Oc3c(C(C)=O)c(O)c(C)c(O)c3C2(C)C1=O.CC(=O)C1=C([O-])C=C2Oc3c(C(C)=O)c(O)c(C)c(O)c3C2(C)C1=O.CC(=O)C1=C([O-])C=C2Oc3c(C(C)=O)c(O)c(C)c(O)c3C2(C)C1=O.O.O.O.[Nd+3] (stereo not drawn) [NdL3·3H2O 5] strictly below 0.4%?
[A] TRUE

---

System: L. (L.) amazonensis intracellular amastigotes
experimental-protocol: In vitro antileishmanial activity on intracellular amastigotes in peritoneal macrophages
Type: cell-based, Leishmania (Leishmania) amazonensis
measurement-conditions: Leishmania amazonensis, Peritoneal macrophage, in Mus musculus; BALB/c peritoneal macrophages, 24 h, Giemsa count; read-out: L. amazonensis Intracellular Amastigotes (Ama.) IC50
property-measured: pIC50
Note on pIC50: it is the negative log10 of concentration, concentration in mol/L.

N=C(N)c1ccc(OCCCCCOc2ccc(C(=N)N)cc2)cc1 [Pentamidine, reference compound]
6.04

[Q] Write down the reported pIC50 of C[C@@H]1[C@H](O)[C@@H](C)/C=C/C=C/C=C/C=C/C=C/C=C/C=C/[C@H](O[C@@H]2O[C@H](C)[C@@H](O)[C@H](N)[C@@H]2O)C[C@@H]2O[C@](O)(C[C@@H](O)C[C@@H](O)[C@H](O)CC[C@@H](O)C[C@@H](O)CC(=O)O[C@H]1C)C[C@H](O)[C@H]2C(=O)O [Amphotericin B, reference compound] , test system: L. (L.) amazonensis intracellular amastigotes.
[A] 6.70

---

Tested on: L. (L.) amazonensis promastigote forms
experimental-protocol: Flow cytometry for apoptosis and membrane permeability (PE Annexin V / 7-AAD)
Type: cell-based, Leishmania (Leishmania) amazonensis
measurement-conditions: 48 h, treatment at IC50
Note to self: An./7-AAD (double stained parasites) under 3% means 1.0, ties and anything higher get 0.0.

Solved entries (count: 4):
CC(=O)C1=C([O-])C=C2Oc3c(C(C)=O)c(O)c(C)c(O)c3C2(C)C1=O.CC(=O)C1=C([O-])C=C2Oc3c(C(C)=O)c(O)c(C)c(O)c3C2(C)C1=O.CC(=O)C1=C([O-])C=C2Oc3c(C(C)=O)c(O)c(C)c(O)c3C2(C)C1=O.O.O.O.[Nd+3] (stereo not drawn)
0.0
CC(=O)C1=C([O-])C=C2Oc3c(C(C)=O)c(O)c(C)c(O)c3C2(C)C1=O.CC(=O)C1=C([O-])C=C2Oc3c(C(C)=O)c(O)c(C)c(O)c3C2(C)C1=O.CC(=O)C1=C([O-])C=C2Oc3c(C(C)=O)c(O)c(C)c(O)c3C2(C)C1=O.O.O.O.O.[Sm+3] (stereo not drawn)
0.0
CC(=O)C1=C([O-])C=C2Oc3c(C(C)=O)c(O)c(C)c(O)c3C2(C)C1=O.CC(=O)C1=C([O-])C=C2Oc3c(C(C)=O)c(O)c(C)c(O)c3C2(C)C1=O.CC(=O)C1=C([O-])C=C2Oc3c(C(C)=O)c(O)c(C)c(O)c3C2(C)C1=O.O.O.O.[Gd+3] (stereo not drawn)
0.0
CC(=O)C1=C([O-])C=C2Oc3c(C(C)=O)c(O)c(C)c(O)c3C2(C)C1=O.CC(=O)C1=C([O-])C=C2Oc3c(C(C)=O)c(O)c(C)c(O)c3C2(C)C1=O.CC(=O)C1=C([O-])C=C2Oc3c(C(C)=O)c(O)c(C)c(O)c3C2(C)C1=O.O.O.O.[Eu+3] (stereo not drawn)
1.0

Then there is this molecule:
[Q] Is An./7-AAD (double stained parasites) of CC(=O)C1=C([O-])C=C2Oc3c(C(C)=O)c(O)c(C)c(O)c3C2(C)C1=O.CC(=O)C1=C([O-])C=C2Oc3c(C(C)=O)c(O)c(C)c(O)c3C2(C)C1=O.CC(=O)C1=C([O-])C=C2Oc3c(C(C)=O)c(O)c(C)c(O)c3C2(C)C1=O.O.O.O.[La+3] (stereo not drawn) strictly below 3%?
[A] 0.0
